Test system: Plasmodium falciparum NF54 stage V gametocytes
Assay: viability index relative to DMSO control (fraction); higher = less gametocyte killing
Conditions: 2.5 µM, library set: Broad Institute DOS, incubation time: 72 h
The full ranking holds about 9,900 compounds; the median of “viability index relative to DMSO control” is about 1, and the lowest 2% start at about 0.85. Shown is part of a subset that was picked to be rich in the lowest values.
PROPERTY NAME: viability index
Give the figure only, with no unit attached.

Sample records with viability index:
{"STRUCTURE": "CO[C@@H]1CN(C)C(=O)c2cc(NC(=O)Nc3cccc(Cl)c3)ccc2OC[C@@H](C)N(C(=O)Nc2c(C)noc2C)C[C@H]1C", "EXPERIMENTAL SYSTEM": "Plasmodium falciparum NF54 stage V gametocytes", "viability index": 1.05}
{"STRUCTURE": "CC(C)C#Cc1ccc([C@H]2[C@H]3CN(C(=O)Cc4ccccc4)CC(=O)N3[C@H]2CO)cc1", "EXPERIMENTAL SYSTEM": "Plasmodium falciparum NF54 stage V gametocytes", "viability index": 1.05}
{"STRUCTURE": "O=S(=O)(c1cccc(F)c1)N1[C@@H]2CNC[C@H]1[C@H]2c1ccc(-c2ccccc2F)cc1", "EXPERIMENTAL SYSTEM": "Plasmodium falciparum NF54 stage V gametocytes", "viability index": 1.06}

Inquiry: // lookup viability index | system=Plasmodium falciparum NF54 stage V gametocytes | key= C[C@@H]1CN([C@@H](C)CO)C(=O)c2ccccc2-c2ccccc2CO[C@@H]1CN(C)C(=O)[C@@H]1CCCN1C
Reply text: 0.936

Inquiry: Another compound to look at: C[C@@H](NC(=O)C[C@H]1C=C[C@@H](NS(=O)(=O)c2cccc(F)c2)[C@H](CO)O1)c1ccccc1
Reply text: 1.17

Inquiry: Another compound to look at: O=C(C[C@H]1CC[C@@H]2NC[C@H](O)COC[C@H]2O1)Nc1ccc(-c2ccccc2)cc1
Reply text: 1.04

Inquiry: Another compound to look at: CCS(=O)(=O)Nc1ccc2c(c1)C(=O)N(C)C[C@H](OC)[C@H](C)CN(CC1CCCCC1)[C@H](C)CO2
Reply text: 0.995

Inquiry: Another compound to look at: C[C@@H]1CN([C@@H](C)CO)C(=O)c2cc(NC(=O)C3CCCCC3)ccc2O[C@@H](C)CCCCO[C@@H]1CN(C)C(=O)CCC(F)(F)F
Reply text: 1.05

Inquiry: Another compound to look at: Cc1ccc(S(=O)(=O)Nc2cccc3c2O[C@H](CN(C)C(=O)Nc2ccc(C(F)(F)F)cc2)[C@H](C)CN([C@H](C)CO)C3=O)cc1
Reply text: 1.07

* * *

viability index values, listed per item
Tested on: Plasmodium falciparum NF54 stage V gametocytes
Assay: viability index relative to DMSO control (fraction); higher = less gametocyte killing
Settings: 2.5 µM, library set: Broad Institute DOS, incubation time: 72 h
In all, about 9,900 compounds were measured (“viability index relative to DMSO control”: median about 1, lowest 2% from about 0.85 on). The sample holds the lowest values, similar compounds and a random draw of the others, so the mix is not that of the screen.

{"STRUCTURE": "C[C@H]1CCCCO[C@H](CN(C)C(=O)Nc2ccc(C(F)(F)F)cc2)[C@@H](C)CN([C@@H](C)CO)C(=O)c2cc(NS(=O)(=O)c3cn(C)cn3)ccc2O1", "EXPERIMENTAL SYSTEM": "Plasmodium falciparum NF54 stage V gametocytes", "viability index": 1.01}
{"STRUCTURE": "CCCC(=O)N1C[C@]2(CN(Cc3nccs3)C2)c2c([nH]c3cc(OC)ccc23)[C@@H]1CO", "EXPERIMENTAL SYSTEM": "Plasmodium falciparum NF54 stage V gametocytes", "viability index": 1}
{"STRUCTURE": "CC(C)NC(=O)Nc1cccc2c1O[C@H](CN(C)C(=O)Nc1ccccc1)[C@@H](C)CN([C@H](C)CO)C2=O", "EXPERIMENTAL SYSTEM": "Plasmodium falciparum NF54 stage V gametocytes", "viability index": 0.975}

Inquiry: # viability index lookup, item CCC(=O)NC[C@H]1[C@@H](c2ccc(-c3ccc(C#N)cc3)cc2)[C@@H](CO)N1CCC(F)(F)F
Reply text: 1.01

* * *

viability index values, listed per item
System: Plasmodium falciparum NF54 stage V gametocytes
Test: viability index relative to DMSO control (fraction); higher = less gametocyte killing
Details: 2.5 µM, library set: Broad Institute DOS, incubation time: 72 h
Over roughly 9,900 compounds, “viability index relative to DMSO control” has its median near 1; the lowest 2% begin near 0.85. This is one part of a sample in which the lowest values are shown more often than they occur.
Give the figure only, with no unit attached.

{"STRUCTURE": "COc1cccc(S(=O)(=O)N2CCCCN3[C@H](CO)[C@H](c4ccc(C#CCC(C)C)cc4)[C@@H]3C2)c1", "EXPERIMENTAL SYSTEM": "Plasmodium falciparum NF54 stage V gametocytes", "viability index": 1}
{"STRUCTURE": "COCC#Cc1ccc([C@@H]2[C@@H](CO)N3C(=O)CN(C(=O)Nc4ccccc4F)C[C@@H]23)cc1", "EXPERIMENTAL SYSTEM": "Plasmodium falciparum NF54 stage V gametocytes", "viability index": 1.02}
{"STRUCTURE": "CC(=O)N1C[C@@H]2N[C@H](C1)[C@H]2c1ccc(-c2ccccc2)cc1", "EXPERIMENTAL SYSTEM": "Plasmodium falciparum NF54 stage V gametocytes", "viability index": 1.11}
{"STRUCTURE": "COc1ccc(S(=O)(=O)N(C)C[C@H]2OCCCC[C@@H](C)Oc3ccc(NC(=O)Cc4ccccc4)cc3C(=O)N([C@@H](C)CO)C[C@H]2C)cc1", "EXPERIMENTAL SYSTEM": "Plasmodium falciparum NF54 stage V gametocytes", "viability index": 0.773}
{"STRUCTURE": "COc1cccc(S(=O)(=O)N2CCCCN3[C@H](CO)[C@H](c4ccc(C#CCC(C)C)cc4)[C@H]3C2)c1", "EXPERIMENTAL SYSTEM": "Plasmodium falciparum NF54 stage V gametocytes", "viability index": 0.643}
{"STRUCTURE": "N#Cc1ccc(-c2ccc([C@@H]3[C@@H]4CN(S(=O)(=O)Cc5ccccc5)C[C@H]3N4)cc2)cc1", "EXPERIMENTAL SYSTEM": "Plasmodium falciparum NF54 stage V gametocytes", "viability index": 0.976}
{"STRUCTURE": "COc1cccc(S(=O)(=O)N2CCCCN3[C@@H](CO)[C@H](c4ccc(C#CCC(C)C)cc4)[C@@H]3C2)c1", "EXPERIMENTAL SYSTEM": "Plasmodium falciparum NF54 stage V gametocytes", "viability index": 1.01}

Could you now consider this next compound?
Inquiry: # viability index lookup, item O=S(=O)(c1ccc(-c2ccccc2)cc1)N1C[C@@H]2N[C@H](C1)[C@@H]2c1ccc(-c2ccncc2)cc1
Reply text: 1.07

* * *

Tested on: Plasmodium falciparum NF54 stage V gametocytes
Experiment: viability index relative to DMSO control (fraction); higher = less gametocyte killing
Conditions: 2.5 µM, library set: Broad Institute DOS, incubation time: 72 h
Whole data set: some 9,900 compounds, median “viability index relative to DMSO control” near 1, cut for the lowest 2% near 0.85. The entries come from a sample that favours the lowest values as a whole.
Note to self: use t only for viability index readings below 1; a reading exactly at 1 still gets f.

Recorded results for 3 molecules are shown here.
{"STRUCTURE": "Cc1cccc(S(=O)(=O)N2CC[C@@H]3[C@H]2c2cc(-c4ccccc4F)ccc2N[C@@H]3CO)c1", "EXPERIMENTAL SYSTEM": "Plasmodium falciparum NF54 stage V gametocytes", "CLASS": "t"}
{"STRUCTURE": "COc1ccc(CNC(=O)C[C@H]2CC[C@H](NC(=O)CN(C)C)[C@@H](CO)O2)cc1", "EXPERIMENTAL SYSTEM": "Plasmodium falciparum NF54 stage V gametocytes", "CLASS": "f"}
{"STRUCTURE": "CC(C)C#Cc1ccc([C@@H]2[C@@H](CO)N(C(=O)c3cccc(F)c3)[C@H]2C#N)cc1", "EXPERIMENTAL SYSTEM": "Plasmodium falciparum NF54 stage V gametocytes", "CLASS": "f"}

Inquiry: Could you please tell me whether viability index recorded for C[C@@H]1CN([C@H](C)CO)C(=O)c2c(c3ccccc3n2C)-c2ccccc2CO[C@H]1CN(C)C(=O)[C@@H](Cc1ccccc1)N(C)C is less than 1?
Reply text: f

Inquiry: Another molecule to look at: C[C@@H]1CN([C@H](C)CO)C(=O)c2cc(NC(=O)C3CCCCC3)ccc2O[C@@H](C)CCCCO[C@@H]1CN(C)C(=O)CCC(F)(F)F
Reply text: t

Inquiry: Another molecule to look at: O=C(C[C@H]1C[C@@H]2c3cc(NC(=O)Nc4ccccc4)ccc3O[C@@H]2[C@H](CO)O1)NCc1ccccc1
Reply text: f

Inquiry: Another molecule to look at: O=C(Nc1ccccc1F)N1CC(=O)N2[C@@H](CO)[C@H](c3ccc(-c4cccnc4)cc3)[C@@H]2C1
Reply text: f

Inquiry: Another molecule to look at: Cc1noc(C)c1S(=O)(=O)Nc1ccc2c(c1)C(=O)N([C@@H](C)CO)C[C@@H](C)[C@@H](CN(C)C(=O)Nc1cccc3ccccc13)OCCCC[C@@H](C)O2
Reply text: t

Inquiry: Another molecule to look at: C[C@@H]1CN([C@H](C)CO)C(=O)c2cccc(NC(=O)Nc3ccc(F)cc3)c2O[C@H]1CN(C)S(=O)(=O)c1ccc(Cl)cc1
Reply text: t
